Numbers sourced from paper PMC5540273.

Answer each item with its documented %Inh.
- Test system: CDK3
- testContext: concentration: 1 μM, replicates: in singlicate; n = 1;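 also: KINOMEscan kinase panel screen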
Numbers only, in %.

Guide cases for %Inh, answers given:
- CN1CCN(CCCNc2nccc(-c3c(-c4ccc(F)cc4)nn4cc(C(F)(F)F)ccc34)n2)CC1: 0
- O=C(NC1CCN(c2ccnc(Nc3ccc(F)cc3)n2)C1)c1cc2ccccc2s1 (stereo not drawn): 18
- COc1cccc(NC(=O)NC2CCN(c3ccnc(Nc4cc(OC)c(OC)c(OC)c4)n3)C2)c1 (stereo not drawn): 21
- FC(F)(F)c1ccc(/C=C/c2cncnc2Nc2ccc3[nH]c(Cc4ccccc4)nc3c2)cc1: 50
- O=c1[nH]cc(-c2ccc(N3CCOCC3)cc2)c2sc(-c3cn[nH]c3)cc12: 6

# next compound below
Lab note: "CC(C)c1nc(-c2cccc(NS(=O)(=O)c3c(F)cccc3F)c2F)c(-c2ccnc(Nc3ccc(N4CCOCC4)nc3)n2)s1" gave %Inh of 99.5

----------
- Tested on: RSK4(Kin.Dom.1-N-terminal)
- Construct: gene RPS6KA6
- testContext: concentration: 1 μM, replicates: in singlicate; n = 1
Answer each item with its documented %Inh.
One number for each entry, in %.

Go through the items and report each one's %Inh.
1. CN1CCN(Cc2cccc(-c3ccc4c(Nc5ccc(Oc6ccccc6)cc5)ccnc4c3)c2)CC1
2. Fc1ccc(-c2ncn(C3CCNCC3)c2-c2ccnc(Oc3ccc(-c4ccccc4)cc3)n2)cc1
3. O=C(Nc1n[nH]c2nc(-c3ccc(O)cc3)ccc12)C1CC1

0
18
70

----------
- System: EPHA1
- testContext: concentration: 1 μM, replicates: in singlicate; n = 1
Param label: returns MET when %Inh < 5%, returns NOT MET otherwise, including exact equality.

Examples with answers:
• Nc1ncc(-c2cccnc2)c2scc(-c3ccc4c(c3)CCN4C(=O)Cc3ccccc3)c12 = NOT MET
• CC(C)c1nc(-c2cccc(NS(=O)(=O)c3c(F)cccc3F)c2F)c(-c2ccnc(Nc3ccc(N4CCOCC4)nc3)n2)s1 = NOT MET
• COc1cccc(C(=O)Nc2cccc(Oc3ccc4nc(NC(=O)C5CC5)cn4n3)c2)c1 = NOT MET
• COc1cc2c(cc1OCCN1CCNCC1)ncc1c3ccc(C#N)cc3[nH]c21 = MET
• Cc1ccc(C(=O)Nc2ccc(Nc3ccnc4cc(-c5nccs5)ccc34)cc2O)cc1.Cl = NOT MET

Is %Inh of "COc1ccc(-c2coc3ccc(-c4nnc(SCc5ccc(OC)c(C(F)(F)F)c5)o4)cc23)cc1" strictly below 5%? MET

----------
- Tested on: NDR1
- Construct: gene STK38
- testContext: concentration: 1 μM, replicates: in singlicate; n = 1
Mark F for %Inh values under 7%, and T for everything at or above.

Examples with answers:
• CC(=O)N1CCN(c2ccc(Nc3nccc(-c4sc(C(C)C)nc4-c4cccc(NS(=O)(=O)c5cccc(Cl)c5)c4)n3)cn2)CC1 [GSK1660437] = T
• Cl.c1ccc(-c2ccc3c(Nc4ccc5[nH]ccc5c4)ccnc3c2)nc1 [GW440138] = F
• c1ccc(-c2cnc3nccnn23)cc1 [AH20685] = F
• O=c1[nH]cc(-c2ccc(N3CCOCC3)cc2)c2sc(-c3cn[nH]c3)cc12 [GSK2276055] = T
• CCCCc1nn2ncccc2c1-c1ccnc(Nc2ccc(N3CCN(C)CC3)cc2)n1 [GW684941] = T

Exam item: decide whether the reported %Inh for "CCc1ccc(-c2ccc3c(c2)-c2c(cnn2C)S(=O)(=O)N3C)cc1" is at least 7%. F

Exam item: decide whether the reported %Inh for C[C@@H]1CC[C@@H](C(=O)Nc2ccccc2)CN1c1cc(-c2ccc3c(N)n[nH]c3c2)nc(N)n1 [GSK2286062] is at least 7%. T

Exam item: decide whether the reported %Inh for O=C(Nc1n[nH]c2cc(-c3ccoc3)ccc12)C1CC1 [SB-738481] is at least 7%. F
